Cited source for all entries: patent EP3959993B1

- experiment: Influence of the amount of NaCl on the distribution between oil phase and water phase (Example 5)
- Type: physicochemical
- condition notes: NaCl 55.56 %
reported metric: Distribution in [%] between oil phase and water phase after condensation: Oil phase (%)

A selection of reference data follows.
| compound | result |
| --- | --- |
| CCOC(=O)CC [ethyl propionate] | 0 |
| CC(=O)OCC(C)C [2-methylpropyl acetate] | 97.5 |
| CCCCCC=O [hexanal] | 100 |

(I) CCC/C=C/COC(C)=O [trans-2-hexenyl acetate]
(II) CCOC(C)=O [ethyl acetate]
For this pair, I and II , which shows a numerically higher Distribution in [%] between oil phase and water phase after condensation: Oil phase? // output: label of the selected item I
(I: 100%, II: 33.2%)

###

- experiment: Influence of the amount of NaCl on the distribution between oil phase and water phase (Example 5)
- Type: physicochemical
- condition notes: NaCl 27.8 %
reported metric: Distribution in [%] between oil phase and water phase after condensation: Oil phase (%)

A selection of reference data follows.
| compound | result |
| --- | --- |
| CC/C=C/CCO [trans-3-hexenol] | 84 |
| CC(=O)OCC(C)C [2-methylpropyl acetate] | 92.1 |
| CCCCCCO [hexanol] | 89.6 |

(1) CC/C=C\CCO [cis-3-hexenol]
(2) CCCCCCCCO [octanol]
# compare Distribution in [%] between oil phase and water phase after condensation: Oil phase for 1 vs 2 ; return the one with the smaller value // output: label of the selected item 1
(1: 62.8%, 2: 100%)

###

- experiment: Second oil phase obtained by adding NaCl to the water phase (Example 4)
- Format: physicochemical
- condition notes: after separating oil phases I and II
In this section, each of the compounds is paired with its reported Loss in the water phase.

| compound | reported metric | result |
| --- | --- | --- |
| CC(=O)OCCc1ccccc1 [phenylethyl acetate] | Loss in the water phase | 0,0% |

Identify Loss in the water phase associated with the compound CCC(C)COC(C)=O (stereo not shown) [2-methyl butyl acetate] 0,2%

Identify Loss in the water phase associated with the compound CCCC(=O)OCC [ethyl butyrate] 1,3%

Identify Loss in the water phase associated with the compound CCCCCO 15,4%

Identify Loss in the water phase associated with the compound CCCCCCO 1,8%

Identify Loss in the water phase associated with the compound CCCCCC(=O)O 2,1%

Identify Loss in the water phase associated with the compound CC(=O)OCC(C)C [2-methylpropyl acetate] 1,0%

###

- experiment: Influence of the amount of NaCl on the distribution between oil phase and water phase (Example 5)
- Format: physicochemical
- condition notes: NaCl 0%
reported metric: Distribution in [%] between oil phase and water phase after condensation: Water phase (%)

A selection of reference data follows.
| molecule | result |
| --- | --- |
| CCCC(CC=O)OCC (centres unmarked) | 51.6 |
| CCOC(=O)C(C)CC (centres unmarked) [ethyl 2-methyl butyrate] | 33.9 |
| CCCCCCO | 40.8 |
| CCCCCO | 70.5 |
| O=Cc1ccccc1 | 73 |
| CCCCCC(=O)O | 56.5 |
| CCC/C=C/C=O [trans-2-hexenal] | 64.5 |
| CC(C)CCO | 71.6 |

(a) CC/C=C\CCO [cis-3-hexenol]
(b) CCCCCCOC(C)=O [hexyl acetate]
(c) CC(=O)OCC(C)C [2-methylpropyl acetate]
(d) CC/C=C\CCOC(C)=O [cis-3-hexenyl acetate]
With regard to Distribution in [%] between oil phase and water phase after condensation: Water phase, arrange the entries in ascending order, please. Provide your answer as the labels ordered per the instruction. d, b, c, a
(d: 0%, b: 6.6%, c: 30.7%, a: 69.4%)

###

- experiment: Influence of the amount of NaCl on the distribution between oil phase and water phase (Example 5)
- Type: physicochemical
- condition notes: NaCl 69.44 %
reported metric: Distribution in [%] between oil phase and water phase after condensation: Oil phase (%)

A selection of reference data follows.
| compound | unit tag | result |
| --- | --- | --- |
| CCC(C)CO (centres unmarked) [2-methyl butanol] | % | 82.5 |
| CCCCOC(C)=O [butyl acetate] | % | 97.5 |
| CCCCCCCCO [octanol] | % | 100 |

(a) CCCC(=O)OCC [ethyl butyrate]
(b) CCOC(C)=O [ethyl acetate]
For this pair, a and b , which shows a numerically higher Distribution in [%] between oil phase and water phase after condensation: Oil phase? // output: label of the selected item a
(a: 97.7%, b: 38.9%)

###

- experiment: Influence of the amount of NaCl on the distribution between oil phase and water phase (Example 5)
- Type: physicochemical
- condition notes: NaCl 41.67%
reported metric: Distribution in [%] between oil phase and water phase after condensation: Water phase (%)

(P) CC/C=C\CCO [cis-3-hexenol]
(Q) CCC/C=C/CO [trans-2-hexenol]
(R) CCCCCC=O [hexanal]
Place the item with the largest Distribution in [%] between oil phase and water phase after condensation: Water phase first, then continue in falling order, using the list above. Provide your answer as the labels ordered per the instruction. P, Q, R

(A) CCCC(CC=O)OCC (stereo not shown) [3-ethoxy-hexanal]
(B) CC(=O)OCCc1ccccc1 [phenylethyl acetate]
(C) CCCCCCO [hexanol]
(D) CCCCCCOC(C)=O [hexyl acetate]
With regard to Distribution in [%] between oil phase and water phase after condensation: Water phase, arrange the entries in ascending order, please. Provide your answer as the labels ordered per the instruction. D, B, C, A

(a) CC(=O)OCC(C)C [2-methylpropyl acetate]
(b) CCC/C=C/COC(C)=O [trans-2-hexenyl acetate]
For this pair, a and b , which shows a numerically higher Distribution in [%] between oil phase and water phase after condensation: Water phase? // output: label of the selected item a
(a: 3.8%, b: 0%)

(A) CCC/C=C/C=O [trans-2-hexenal]
(B) CCCCCCCCO [octanol]
(C) CC/C=C/CCO [trans-3-hexenol]
(D) CCOC(C)=O [ethyl acetate]
(E) CCOC(=O)CC [ethyl propionate]
Rank the 5 compounds: largest Distribution in [%] between oil phase and water phase after condensation: Water phase first, smallest last. Provide your answer as the labels ordered per the instruction. E, D, A, C, B

(I) CCCCCCCO [heptanol]
(II) CC(C)CCO [3-methyl butanol]
# compare Distribution in [%] between oil phase and water phase after condensation: Water phase for I vs II ; return the one with the smaller value // output: label of the selected item I

(A) CCCC(=O)OCC [ethyl butyrate]
(B) CCCCCO [pentanol]
For this pair, A and B , which shows a numerically higher Distribution in [%] between oil phase and water phase after condensation: Water phase? // output: label of the selected item B

###

- experiment: Second oil phase obtained by adding NaCl to the water phase (Example 4)
- Format: physicochemical
- condition notes: after separating oil phases I and II
reported metric: Loss in the water phase

| compound | Loss in the water phase |
| --- | --- |
| CCCCCCCCO | 0,0% |

Identify Loss in the water phase associated with the compound CC/C=C\CCOC(C)=O [cis-3-hexenyl acetate] 0,0%

###

- experiment: Influence of the amount of NaCl on the distribution between oil phase and water phase (Example 5)
- Type: physicochemical
- condition notes: NaCl 83.33 %
reported metric: Distribution in [%] between oil phase and water phase after condensation: Oil phase (%)

A selection of reference data follows.
| compound | result |
| --- | --- |
| CCCC(CC=O)OCC (stereo not shown) | 98.5 |
| CCCCCCCCO | 100 |
| O=Cc1ccccc1 | 80.8 |
| CCC(C)COC(C)=O (stereo not shown) [2-methyl butyl acetate] | 99.8 |
| CCCCCCOC(C)=O [hexyl acetate] | 100 |

(P) CC/C=C/CCO [trans-3-hexenol]
(Q) CCOC(=O)CC [ethyl propionate]
(R) CCOC(C)=O [ethyl acetate]
With regard to Distribution in [%] between oil phase and water phase after condensation: Oil phase, arrange the entries in ascending order, please. Provide your answer as the labels ordered per the instruction. Q, R, P

###

- experiment: Influence of the amount of NaCl on the distribution between oil phase and water phase (Example 5)
- Assay type: physicochemical
- condition notes: NaCl 69.44 %
reported metric: Distribution in [%] between oil phase and water phase after condensation: Water phase (%)

| molecule | result |
| --- | --- |
| CCC/C=C/COC(C)=O [trans-2-hexenyl acetate] | 0 |

(P) CC(=O)OCC(C)C [2-methylpropyl acetate]
(Q) CCCCCC=O
(R) CCCC(=O)OCC [ethyl butyrate]
Rank the 3 molecules: largest Distribution in [%] between oil phase and water phase after condensation: Water phase first, smallest last. Provide your answer as the labels ordered per the instruction. R, P, Q

(I) CCOC(C)=O [ethyl acetate]
(II) CCCCCCCO
(III) CCCC(CC=O)OCC (stereo not shown)
With regard to Distribution in [%] between oil phase and water phase after condensation: Water phase, arrange the entries in ascending order, please. Provide your answer as the labels ordered per the instruction. II, III, I
(II: 0%, III: 2.6%, I: 61.1%)

(P) CCOC(=O)CC [ethyl propionate]
(Q) CCCCCCOC(C)=O [hexyl acetate]
# compare Distribution in [%] between oil phase and water phase after condensation: Water phase for P vs Q ; return the one with the smaller value // output: label of the selected item Q
(Q: 0%, P: 100%)
